# Test system: Staphylococcus aureus
# experimental-protocol: Antibacterial activity against carbapenem and methicillin-resistant Staphylococcus aureus M126HR by agar dilution method
# Format: functional
Could you please report measured MIC for the items listed next?
The reply should be a number in µg/mL, with the unit left off.

What does the record list as MIC for C[C@@H](O)[C@H]1C(=O)N2C(C(=O)O)=C(c3cn4cnc(C(=O)c5cncs5)c4s3)[C@H](C)[C@H]12 ?
4

Entry CCc1nc(C(=O)c2ccc[n+](CC(N)=O)c2)c2sc(C3=C(C(=O)[O-])N4C(=O)[C@H]([C@@H](C)O)[C@H]4[C@H]3C)cn12 : reported MIC = ?
4

Sample C[C@@H](O)[C@H]1C(=O)N2C(C(=O)[O-])=C(c3cn4c(N5CCOCC5)nc(C(=O)c5ccc[n+](CC(N)=O)c5)c4s3)[C@H](C)[C@H]12 — what was its MIC?
8

Consider the molecule shown here: C[C@@H](O)[C@H]1C(=O)N2C(C(=O)[O-])=C(c3cn4cnc(C(=O)c5ccc[n+](CC(N)=O)c5)c4s3)[C@H](C)[C@H]12 What is its recorded MIC?
2

Value lookup for MIC; key = C[C@@H](O)[C@H]1C(=O)N2C(C(=O)[O-])=C(c3cn4c(Cl)nc(C(=O)c5ccc[n+](CC(N)=O)c5)c4s3)[C@H](C)[C@H]12
2

Given the entry C[C@@H](O)[C@H]1C(=O)N2C(C(=O)[O-])=C(c3cn4cnc(C(=O)c5ccc[n+](C)c5)c4s3)[C@H](C)[C@H]12 , report its measured MIC.
4

Please give the measured MIC for this molecule: CCOC(=O)C[n+]1cccc(C(=O)c2ncn3cc(C4=C(C(=O)[O-])N5C(=O)[C@H]([C@@H](C)O)[C@H]5[C@H]4C)sc23)c1
8

Which MIC reading was recorded for the molecule C[C@@H](O)[C@H]1C(=O)N2C(C(=O)[O-])=C(c3cn4cnc(C(=O)c5ccc[n+](CCNS(N)(=O)=O)c5)c4s3)[C@H](C)[C@H]12 ?
2

// lookup MIC for C[C@@H](O)[C@H]1C(=O)N2C(C(=O)[O-])=C(c3cn4cnc(C(=O)c5ccc[n+](CCN(C)C)c5)c4s3)[C@H](C)[C@H]12
4
